TEST TARGET: PPAR alpha (Homo sapiens, UniProt Q07869)
PROTOCOL DETAILS: Transient transfection (transactivation) assay in CV-1 cells, GAL4-PPAR chimera, luciferase reporter
pEC50: −log10 of the molar value.
Provide the reported pEC50 of each item.

# COMPOUND, TEST TARGET, METRIC NAME, RESULT
data = [
    ("Cc1ccc(S(=O)(=O)N2[C@H](C)CN(c3ccc(C(F)(F)F)c(F)c3)C[C@@H]2C)cc1CC(=O)O [Example 68]", "PPAR alpha (Homo sapiens, UniProt Q07869)", "pEC50", "> 5.30"),
    ("Cc1ccc(S(=O)(=O)N2CCN(c3ncc(Br)cn3)CC2)cc1CC(=O)O [Example 58]", "PPAR alpha (Homo sapiens, UniProt Q07869)", "pEC50", "4.00 to 5.30"),
    ("COC[C@@H]1CN(S(=O)(=O)c2ccc(C)c(CC(=O)O)c2)CCN1c1ccc(C(F)(F)F)cn1 [Example 40]", "PPAR alpha (Homo sapiens, UniProt Q07869)", "pEC50", "< 4.00"),
    ("CCOc1ccccc1N1CCN(S(=O)(=O)c2cccc(CC(=O)O)c2)CC1 [Example 142]", "PPAR alpha (Homo sapiens, UniProt Q07869)", "pEC50", "< 4.00"),
]

We now examine a further compound.
Sample Cc1ccc(S(=O)(=O)N2CCN(c3ccc(C(F)(F)F)nn3)CC2)cc1CC(=O)O [Example 74] — what was its pEC50?
< 4.00

---

TEST TARGET: PPAR alpha (Homo sapiens)
Sequence (Q07869 239-466 limits assumed): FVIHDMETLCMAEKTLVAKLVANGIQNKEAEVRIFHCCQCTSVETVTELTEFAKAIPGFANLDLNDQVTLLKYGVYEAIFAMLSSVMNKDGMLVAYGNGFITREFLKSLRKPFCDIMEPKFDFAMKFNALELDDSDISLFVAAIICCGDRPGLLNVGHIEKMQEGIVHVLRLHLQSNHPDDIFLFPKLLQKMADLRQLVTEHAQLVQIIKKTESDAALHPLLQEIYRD
PROTOCOL DETAILS: Transient transfection (transactivation) assay in CV-1 cells, GAL4-PPAR chimera, luciferase reporter
METRIC NAME: EC50

Solved cases below.
# COMPOUND, EC50
data = [
    ("COc1ccc(S(=O)(=O)N2CCN(c3ccc(C(F)(F)F)cc3)CC2)cc1CC(=O)O", "> 100 µM"),
    ("O=C(O)Cc1cccc(S(=O)(=O)N2CCN(C(=O)c3ccco3)CC2)c1", "> 100 µM"),
    ("Cc1ccc(S(=O)(=O)N2CCN(c3ccc(F)cc3F)CC2)cc1CC(=O)O", "> 100 µM"),
    ("Cc1ccc(S(=O)(=O)N2C[C@@H]3C[C@H]2CN3c2ccc(F)cc2)cc1CC(=O)O", "> 100 µM"),
    ("Cc1ccc(S(=O)(=O)N2CC=C(c3ccc(C(F)(F)F)cn3)CC2)cc1CC(=O)O", "5 to 100 µM"),
    ("O=C(O)Cc1cccc(S(=O)(=O)N2CCN(c3ccc(OC(F)(F)F)cc3)CC2)c1", "< 5 µM"),
    ("Cc1ccc(S(=O)(=O)N2CCN(c3cccc(C(F)(F)F)n3)CC2)cc1CC(=O)O", "5 to 100 µM"),
    ("Cc1ccc(S(=O)(=O)N2CCC(c3ccc(C(F)(F)F)cc3)CC2)cc1CC(=O)O", "> 100 µM"),
    ("Cc1cc(CC(=O)O)cc(S(=O)(=O)N2CCN(c3ccc(C)c(C)c3)CC2)c1", "> 100 µM"),
    ("Cc1ccc(S(=O)(=O)N2CCCN(c3nc4ccccc4o3)CC2)cc1CC(=O)O", "> 100 µM"),
]

Can you give me EC50 for all of these, one by one?
1. Cc1ccc(S(=O)(=O)N2CCC(c3nc(C(F)(F)F)cs3)CC2)cc1CC(=O)O
2. Cc1ccc(C)c(N2CCN(S(=O)(=O)c3cc(CC(=O)O)ccc3C)CC2)c1

> 100 µM
> 100 µM
